- experiment: soluble on expression in E. coli; label from the status in PepcDB or PDB records
property-name: soluble on expression in E. coli

MGSDKIHHHHHHMNPLDLIAKRAYPYETEKRDKTYLALNENPFPFPEDLVDEVFRRLNSDALRIYYDSPDEELIEKILSYLDTDFLSKNNVSVGNGADEIIYVMMLMFDRSVFFPPTYSCYRIFAKAVGAKFLEVPLTKDLRIPEVNVGEGDVVFIPNPNNPTGHVFEREEIERILKTGAFVALDEAYYEFHGESYVDFLKKYENLAVIRTFSKAFSLAAQRVGYVVASEKFIDAYNRVRLPFNVSYVSQMFAKVALDHREIFEERTKFIVEERERMKSALREMGYRITDSRGNFVFVFMEKEEKERLLEHLRTKNVAVRSFREGVRITIGKREENDMILRELEVFK ... soluble
MRADGFVPLQALLQLPQFHSFSIEDVQLVVNTNEKQRFTLQPGEPSTGLLIRANQGHSLQVPELELTPLETPQALPLTLVHGTFWKHWPSILLKGLSRQGRTHIHLASGLPGDPGVISGIRPNCEVAVFIDGPLALTDGIPFFCSANGVILTPGNAEGFLLPKYFKEALQLRPTRKPLSLAGDKETETQSGPKLSSRGGRRKIQQ ... soluble

====

- experiment: soluble on expression in E. coli; label from the status in PepcDB or PDB records
property-name: soluble on expression in E. coli

MGSDKIHHHHHHMILPDRKQILDRELIRRIADTTISGSGHSDGLSEYASIRKAAFAFVESAVLGDQAYSPIENAELAFIVWILAALDENIITARTIIKARDTVYYYLRLVEHYEDLEEFGSRLGIEISVFGEQIGKDHLYRIGVADFATYASRVTGSKYRLSNQIVREGYVYVDEDVMAKVLREAFVSFMFDTLDQIRYYDAIETIKSVLDDLEKIRESYRKAHNVRMIAGKGDASMFPPCMKEIIKNLESGVNVSHMGRLALASFLHKAGYSEDEIVPYFRNAPDFDENITRYQIKHISGEISGTEYTPPKCETMRSNHLCYMDDDPLCHREWMKHPLTYYEVKRRNRKIR ... not soluble
FLPTSREEMDQLGWDSCDVIIVTGDAYVDHPSFGMAIIGRLLEAQGFRVGIIAQPEWQTKDAFMTLGKPNLFFGVTAGNMDSMINRYTADKKIRHDDAYTPNNKGGMRPDRCSLVYSQRCREAYKDVPIVLGGIEASLRRVAHYDYWSDKVRRSILLDAKADILLFGNAERALVEVAHRLANGESINKMVDIRGTAVNLAQVPEHFKIIDSTRIDQPNKPFVPSNPYEVETQCATKGDEKEEAQPITIRPSRHDAKTTAVRLPSFEKLVNDRILYAHASRVLHLETNPYSGRALVQRHGDRELWVNQAPIPLTTEEMDFVFGLYYARVPHPKYGDAKIPAYDMIKTSVNIMRGCF ... not soluble
MSLTSPKRNIVGFTIVNDKHEFAQRLINAFKAEAKANKYEALVATSQNSRISEREQILEFVHLKVDAIFITTLDDVYIGSAIEEAKKAGIPVFAIDRMIRSDAVVSSITSNNQMIGEQLASYIKNELIKQTGRSTGRIVEITGTANVYTTNERHRGFLKGIENEPTLSIVDSVSGNYDPVTSERVMRQVIDSGIPFDAVYCHNDDIAMGVLEALKKAKISGKIVVGIDGNRAILEAVDMKSMDATVVQSAEEMMKVAFSALKLHTKNKKIPDRFYTYSYLYDGSREGHHHHHH ... soluble
EVKQFNTYANNLAKIKQKVILMGLLTEAKLEQYKGLSVDEVEAQTEFSFQDAIYSLSPYEKLNYVEAVARKSLHQAEAYLSNAFNRQNAIMYFRSYTGSKLILERPIKALEGVKATFDVDWCKSNYSCVLAAWKEQLTDRVLFSLPFKTTYSDDMAISIMSPVYFQGELVGEFSEQLYLSSLYNEGKAVDVQISNGNKQMVIYFSGYPWPSFAYTQSFVADNNNLIVYMYPFSKV ... not soluble
MCDIGNLTQYRQAQEDILRGRVKVRVVGQDKGGGVVMGEGVEIAPGARIEGPVLIGGACHIATGAVVGPFTVLGPYTRVEEGATVRRSVLWDNVYTGEGANVRGLEHHHHHH ... not soluble

"MSLADRLTIGEFSRITHLSIRMLRRYHEQDLLVPAEVDPDTGYRYYSPAQIRPALTVRRFRDLDLPLADLRRFLAAESADGPDDGTAQQVVAAHLRRLEDRLGRTQRAVEVLRELLDPEAEREGHHHHHH" has a reported soluble on expression in E. coli of not soluble

"MGHHHHHHSHMGKGTFVYRTTITSPHEEVWAFFSSPTNLQTLTKIPKVVLDSTSETTQGSEIEMKLFVLGIPFQWKAYIEAYNPPFSFTDVAIKMPFPIVYWRHTHRFTTEGERTVMIDEIQYEIKMANKLVIFFLRRMFRARESALHRYFQS" has a reported soluble on expression in E. coli of soluble

Hello, the source for this data is the DeepSol protein solubility set, in case you need it.
